Source listed as PubChem BioAssay.

Molecular target: Homeobox protein Hox-A13 (Mus musculus) (UniProt Q62424)
Sequence (Q62424 whole entry, looked up): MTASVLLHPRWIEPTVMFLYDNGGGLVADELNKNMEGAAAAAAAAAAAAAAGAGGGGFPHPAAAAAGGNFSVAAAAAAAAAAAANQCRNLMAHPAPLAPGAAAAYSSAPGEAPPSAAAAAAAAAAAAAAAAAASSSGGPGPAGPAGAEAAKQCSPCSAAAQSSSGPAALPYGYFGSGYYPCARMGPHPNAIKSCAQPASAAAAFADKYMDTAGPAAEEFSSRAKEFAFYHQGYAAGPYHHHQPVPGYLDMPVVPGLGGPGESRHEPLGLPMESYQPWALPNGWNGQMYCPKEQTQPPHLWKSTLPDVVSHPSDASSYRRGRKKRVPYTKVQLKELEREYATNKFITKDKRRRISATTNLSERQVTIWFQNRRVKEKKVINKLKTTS
Test: inhibitors of HoxA13-DNA binding, primary screen, biochemical, fluorescence polarization, labeled oligonucleotide (AID 1185)
Conditions: 15 min, higher = more signal, called active from +8 up or from −8 down
z-score vs -2: at or above is 1, below is -1.

Asked: Hi team, for CC(C)C(CO)N1C(=O)[C@@H]2C3C(=O)OCCC/C=C\[C@H]3OC23C=CCN(C(C)C)C(=O)[C@@H]13 (stereo partly specified) , is the recorded z-score at or above -2?
Given back: -1

Asked: Does z-score meet or surpass -2 for CC(C)C[C@@H]1NC(=O)[C@@]23C(=O)N[C@@H](Cc4ccccc4)C2[C@H](C)[C@@]2(C)O[C@H]2C3/C=C/CC/C=C/CNC(=O)[C@@H](C)NC1=O (stereo partly specified) ?
Given back: -1

Asked: Can COc1ccc([Si](C)(C)[C@H]2[C@H](CC(=O)N(CCO)Cc3ccccc3)O[C@@]3(C(=O)N(Cc4ccc(N5CCC5=O)cc4)c4ccccc43)[C@@H]2C)cc1 be said to have z-score at or above -2?
Given back: 1

Asked: Decide: z-score of Cc1ccc(S[C@]2(C(=O)NCCN3CCOCC3)CC(=O)N(Cc3cc(C(F)(F)F)cc(C(F)(F)F)c3)[C@@H]2c2ccc(CO)cc2)cc1 >= -2?
Given back: 1

Asked: Can CC(C)C[C@@H]1NC(=O)[C@@]23C(=O)N[C@@H](Cc4ccccc4)C2[C@H](C)[C@@]2(C)O[C@H]2C3/C=C/C/C=C\CNC(=O)[C@H](Cc2ccccc2)NC1=O (stereo partly specified) be said to have z-score at or above -2?
Given back: -1

Asked: Exam item: decide whether the reported z-score for COCCOC(=O)N1C(=O)[C@@]2(c3cc(C#CCNC(N)=O)ccc31)[C@H](c1ccccc1OCCO)N1[C@H](c3ccccc3)[C@H](c3ccccc3)OC(=O)[C@H]1[C@@H]2C(=O)Nc1nc2ccccc2s1 is at least -2.
Given back: 1

====

Assay: fission yeast growth modulation, primary screen, strain 972, OD600, 24 h, no modulator (AID 1090);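 also: basal condition with compound alone and no growth modifier present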
Details: S. pombe 972 growth, higher = more signal, called active from +8 up or from −8 down
REPORTED_METRIC: z-score
Just the number, please, no unit after it.

Before answering, review these 5 worked examples.
| STRUCTURE_SMILES | REPORTED_METRIC | OBSERVED_VALUE |
| --- | --- | --- |
| CC(C)[C@@H](C(=O)O)n1cc(-c2ccccn2)nn1 | z-score | -0.477 |
| O=C1O[C@@H](c2ccccc2)[C@@H](c2ccccc2)N2[C@@H](c3ccc(OCCO)cc3)[C@]3(C(=O)Nc4ccc(C#CC5(O)CCCCCC5)cc43)[C@@H](C(=O)NC[C@H](O)c3ccccc3)[C@H]12 | z-score | 1.21 |
| COc1ccc([Si](C)(C)[C@H]2[C@H](CC(=O)N(CCO)Cc3ccccc3)O[C@@]3(C(=O)N(Cc4cccc(N5C(=O)COc6ccccc65)c4)c4ccccc43)[C@@H]2C)cc1 | z-score | 0.272 |
| C=CCNC(=O)[C@@H]1[C@H]2C(=O)O[C@H](c3ccccc3)[C@H](c3ccccc3)N2[C@H](c2ccc(O)cc2)[C@@]12C(=O)Nc1ccc(C#Cc3ccc(OC)cc3)cc12 | z-score | -1.67 |
| O=C(NC1CC1)[C@@H]1c2ccccc2C(=O)N(Cc2ccccc2C(F)(F)F)[C@H]1c1ccc(CO)cc1 | z-score | -1.77 |

--- query ---
Field z-score (entry COCCOC(=O)N1C(=O)[C@@]2(c3cc(C#CCNC(N)=O)ccc31)[C@H](C(=O)NC[C@H](O)c1ccccc1)[C@H]1C(=O)O[C@H](c3ccccc3)[C@H](c3ccccc3)N1[C@@H]2c1ccc(O)cc1 ) reads -2.42

====

Assay: E. coli growth modulation, two-sided OD650, primary screen, E. coli filamentation project, strain DRC41, 24 h (AID 1093);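 also: MC1000 strain lacking acrAB efflux and sulA so SOS filamentation is blocked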
Conditions: OD650, 24 h, higher = more signal, called active from +8 up or from −8 down
REPORTED_METRIC: z-score
Reply with just the number.

Previously resolved entries follow.
| COMPOUND | z-score |
| --- | --- |
| O=C1O[C@H](c2ccccc2)[C@H](c2ccccc2)N2[C@H]1[C@@H](C(=O)Nc1nc3ccccc3s1)[C@]1(C(=O)Nc3ccc(C#CCCO)cc31)[C@H]2c1ccccc1OCCO | 2.96 |
| C=C(C(=O)CC[C@@H](OC(C)=O)c1ccccc1OCCO)C(C)C | 1.27 |
| COc1ccc([Si](C)(C)[C@@H]2[C@@H](CC(=O)N3CCC[C@H]3CO)O[C@]3(C(=O)N(Cc4ccc(I)cc4)c4ccccc43)[C@H]2C)cc1 | 2.22 |
| COc1ccc([Si](C)(C)[C@H]2[C@H](CC(=O)N(CCO)Cc3ccccc3)O[C@@]3(C(=O)N(Cc4cccc(N5C(=O)COc6ccccc65)c4)c4ccccc43)[C@@H]2C)cc1 | 2.09 |
| Cc1ccc(S[C@]2(C(=O)NCCN3CCOCC3)CC(=O)N(Cc3cc(C(F)(F)F)cc(C(F)(F)F)c3)[C@@H]2c2ccc(CO)cc2)cc1 | 0.611 |

Value of z-score reported for the compound CCCCCN1CC=CC23O[C@@H]4/C=C\CCC(C)OC(=O)C4[C@H]2C(=O)N(CCO)[C@@H]3C1=O (some centres not stated) is 2.35

z-score in this record for COc1ccc([Si](C)(C)[C@@H]2[C@@H](CC(=O)N3CCC[C@H]3CO)O[C@]3(C(=O)N(Cc4ccc(N5CCC5=O)cc4)c4ccccc43)[C@H]2C)cc1 : 0.673

====

Assay: RPMI8226 myeloma cell viability, profiling panel, resazurin fluorescence, basal, 24 h, PK04 Diversity Set (AID 1180);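 also: RPMI8826 multiple myeloma cell line at 5000 cells per well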
Details: higher = more signal
compounds and their reported z-score
Would you mind answering with just the numeric figure?

Some solved entries appear below for comparison.
| STRUCTURE_SMILES | z-score |
| --- | --- |
| CC(C)C(=C=CC[C@@H](O)c1ccc(CO)o1)CCO | 1.18 |
| COc1ccc(C(=O)Nc2cccc(CN3C(=O)[C@@]4(O[C@@H](CCO)[C@H]([Si](C)(C)c5ccc(OC)cc5)[C@H]4C)c4ccccc43)c2)cc1 | -6.22 |
| C=CCNC(=O)[C@@H]1[C@H]2C(=O)O[C@H](c3ccccc3)[C@H](c3ccccc3)N2[C@H](c2ccc(O)cc2)[C@@]12C(=O)Nc1ccccc12 | 0.812 |

Summary for this compound, [N-]=[N+]=Nc1ccccc1[C@H]1OC(c2ccc(OCCCO)cc2)=N[C@@]1(Cc1ccccc1)C(N)=O : z-score is -1.96

The value of z-score measured for the compound O=C1c2ccccc2[C@](Cc2ccccc2I)(C(=O)O)[C@H](c2ccc(CO)cc2)N1Cc1ccccc1Cl turned out to be 0.601

====

Test: DNA binders by acridine orange displacement, dose response, counter-screen for EWS/Fli inhibitor project, biochemical, fluorescence polarization, cherry-pick (AID 720586);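 also: lower polarization ratio signals compound binding to DNA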
Conditions: salmon sperm DNA acridine orange fluorescence polarization; series mostly up to 68 µM
The list shows a part of the results. Activity calls are given as the source filed them.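 The calls were made as follows: active = fitted curve reaches a 35% signal fall AC35 below twice the sample's top valid tested dose (actives reach about 48 µM in these data); inactive = the rest, including activity in the rising direction.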
Tick one outcome: TRUE = active, FALSE = inactive

| COMPOUND | CATEGORY |
| --- | --- |
| NC1=CC(=O)C(=O)c2cccnc21 | FALSE |
| CCCCCCCCn1c2c(c(=N)c3c1CCC3)CCCC2 | FALSE |
| C[C@H](CO)N1C[C@H](C)[C@H](CN(C)Cc2ccc(C(F)(F)F)cc2)Oc2ccc(NC(=O)CCCCCC(=O)Nc3ccccc3N)cc2CC1=O | FALSE |
| COc1ccc(Nc2ncnc3ccc(Br)cc23)c(OC)c1 | FALSE |
| COc1ccc(-c2nc3c(s2)CCc2onc(-c4ccc(OC)cc4)c2-3)cc1 | FALSE |
| C[C@H](CO)N1C[C@H](C)[C@H](CN(C)CC2CCCCC2)Oc2ccc(NC(=O)CCCCCC(=O)Nc3ccccc3N)cc2CC1=O | FALSE |
| CCC(C)Cn1c(O)cc2nn(-c3nc4ccccc4s3)c(=O)c-2c1C (stereo not given) | TRUE |
| CC(=O)Nc1ccc(S(=O)(=O)Nc2ccc(N3CCCCC3)cc2)cc1 | FALSE |
| COc1ccc(/C=C2\SC(=S)N(CCCC(=O)NC3CCCC3)C2=O)cc1OC | FALSE |

Asked: Fill in: this test's call for CCOc1cc2[nH]c(=S)n(Cc3ccc(C(=O)N4CCN(C)CC4)cc3)c(=O)c2cc1OCC is ___
Given back: FALSE

====

Tested on: Wnt5a (protein binding on small-molecule microarray)
Test: Wnt5a binders on small-molecule microarray, primary screen, biophysical, 635/667 nm fluorescence (AID 1142);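 also: fluorescence read at 667 nm with signal to noise per printed feature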
Settings: 635 nm fluorescence, higher = more signal
Catalogue of composite z-score readings, one per entry.
Provide a numeric answer; units are not to be included.

Consider the following illustrative entries.
| COMPOUND | composite z-score |
| --- | --- |
| CCCC[C@@H](O)C1=C(C)C[C@H]2C(=O)N(C)C(=O)[C@H]2[C@H]1CO | -0.0163 |
| Cc1ccc(N2C(=O)c3ccccc3[C@](C)(C(=O)NC3CC3)[C@@H]2c2ccc(CO)cc2)nc1 | 0.119 |
| COc1ccc([Si](C)(C)[C@H]2[C@H](CC(=O)N3Cc4ccccc4C[C@H]3CO)O[C@@]3(C(=O)N(Cc4cccc(N5C(=O)COc6ccccc65)c4)c4ccccc43)[C@@H]2C)cc1 | 0.283 |
| C=CCC(OC(C)=O)[C@@H]1[C@@H](N(Cc2ccc(-c3ccccc3)cc2)C(=O)c2ccc(-c3ccccc3)cc2)c2cc(OCCCO)ccc2N1C(=O)c1ccc(-c2ccccc2)cc1 (stereo partly drawn) | 0.144 |
| C#CCOc1ccc(C[C@H]2C(=O)O[C@H](Cc3ccccc3)[C@H](/C=C/C3CC3)N2CC#C)cc1 | -0.245 |
| C=C(COC)/C(=C/C[C@H](OC(C)=O)c1cccc(OCCO)c1)c1cc(C(=O)OC)ccc1OC | 0.44 |
| CC(C)C(CO)N1C(=O)[C@@H]2[C@H]3C(=O)OCC=C[C@H]3OC23C=CCN(Cc2ccccc2)C(=O)[C@@H]13 (stereo partly drawn) | -0.353 |

Value of composite z-score reported for the compound O=C(N1CCCCC1)[C@@]1(Cc2ccccc2)N=C(c2ccc(OCCCO)cc2)O[C@H]1c1ccccc1 is 0.578
